The reported measurements were obtained from patent US20240400554A1.

System: 2% formalin model in SD rats
assay_info: Formalin-induced pain model
Assay type: in vivo
experimental_conditions: Rattus norvegicus, po, 1 h, 3 mg/kg p.o., movements (lifts and licks) 0-60 min after formalin, read-out: MPE % (Maximum Possible Effect)
Some molecules, each annotated with its measured inhibition in vivo at 3 mg/kg.
Report only the number, with the unit % understood.

Sample records with inhibition in vivo at 3 mg/kg:
{"columns": ["molecule", "target_entity", "readout_unit", "inhibition in vivo at 3 mg/kg"],
 "data": [
  ["O=C(OC(CO)C(F)(F)F)N1CCC(c2nn3c(c2C2CC2)CCc2cc(F)ccc2-3)CC1 (stereo not shown)", "2% formalin model in SD rats", "%", 41],
  ["O=C(OC(CO)C(F)(F)F)N1CCC(c2nn3c(c2C(F)(F)F)CCc2cc(F)ccc2-3)CC1 (stereo not shown)", "2% formalin model in SD rats", "%", 56],
  ["O=C(OC(C(F)(F)F)C(F)(F)F)N1CCC(c2cc3n(n2)-c2ncc(F)cc2CC3)CC1", "2% formalin model in SD rats", "%", 49]
]}

### Prompt Consider the molecule O=C(OC(C(F)(F)F)C(F)(F)F)N1CCN(Cc2ccc(C(F)(F)F)cc2N2CCCC2)CC1 [ABX-1431, reference compound] and give its measured inhibition in vivo at 3 mg/kg.
### Response 33

###

Test system: 2% formalin model in SD rats
assay_info: Formalin-induced pain model
Format: in vivo
experimental_conditions: Rattus norvegicus, po, 1 h, 3 mg/kg p.o., movements (lifts and licks) 0-60 min after formalin, read-out: MPE % (Maximum Possible Effect)
Label scheme for inhibition in vivo at 3 mg/kg: lower than 60% is f, 60% and above is t.

Would you please look over these solved cases?
{"columns": ["compound", "group"],
 "data": [
  ["O=C(OC(CO)C(F)(F)F)N1CC2C(C1)C2c1cc2n(n1)-c1ccc(F)cc1CC2 (centres unmarked) [Compound 12]", "t"],
  ["O=C(OC(CO)C(F)(F)F)N1CCC(c2nn3c(c2Br)CCc2cc(F)ccc2-3)CC1 (centres unmarked) [Compound 5]", "f"],
  ["O=C(OC(CO)C(F)(F)F)N1CCC(c2nn3c(c2Cl)CCc2cc(F)ccc2-3)CC1 (centres unmarked) [Compound 4]", "f"],
  ["Cc1c(C2CCN(C(=O)OC(CO)C(F)(F)F)CC2)nn2c1CCc1cc(F)ccc1-2 (centres unmarked) [Compound 6]", "f"],
  ["O=C(OC(C(F)(F)F)C(F)(F)F)N1CCC(c2cc3n(n2)-c2ccc(F)cc2CC3)CC1 [Compound 1]", "t"],
  ["O=C(OC(CO)C(F)(F)F)N1CCC(c2cc3n(n2)-c2ccc(F)cc2CC3)CC1 (centres unmarked) [Compound 2]", "f"]
]}

Would you kindly look at the next entry?
### Prompt # check: inhibition in vivo at 3 mg/kg of O=C(OC(C(F)(F)F)C(F)(F)F)N1CCC(c2nc3n(n2)-c2ccc(F)cc2CC3)CC1 [Compound 24] is greater than or equal to 60%
### Response f

###

target_entity: human recombinant MAGL (monoacylglycerol lipase) (Homo sapiens, UniProt Q99685)
Construct: purchased Cayman Chemical Item No. 705192
Sequence (Q99685 whole entry): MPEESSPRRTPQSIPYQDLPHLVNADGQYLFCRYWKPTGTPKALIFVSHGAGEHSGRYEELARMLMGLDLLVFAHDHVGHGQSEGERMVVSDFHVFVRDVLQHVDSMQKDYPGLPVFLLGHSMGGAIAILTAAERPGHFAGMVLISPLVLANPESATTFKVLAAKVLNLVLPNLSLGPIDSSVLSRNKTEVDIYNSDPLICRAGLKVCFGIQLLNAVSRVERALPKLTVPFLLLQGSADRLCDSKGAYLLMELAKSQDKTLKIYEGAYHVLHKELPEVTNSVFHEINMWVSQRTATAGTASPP
assay_info: In vitro MAGL enzyme inhibition assay (Cayman Monoacylglycerol Lipase Inhibitor Screening Assay, 4-nitrophenylacetate hydrolysis)
Format: biochemical
experimental_conditions: 4-nitrophenylacetate substrate, 15 min preincubation, absorbance 405-415 nm
Catalogue of molecules with associated IC50
Field format: number, assumed nM, no unit text.

{"columns": ["molecule", "IC50 / nM"],
 "data": [
  ["Cc1c(C2CCN(C(=O)OC(C(F)(F)F)C(F)(F)F)CC2)nn2c1CCc1cc(F)cnc1-2", 126]
]}

### Prompt Item: O=C(OC(C(F)(F)F)C(F)(F)F)N1CCC(c2cc3n(n2)-c2ncc(F)cc2CC3)CC1 Test system: human recombinant MAGL (monoacylglycerol lipase) (Homo sapiens, UniProt Q99685) Read-out: IC50 Value: ?
### Response 9.1

### Prompt Lookup CC(C)c1c(C2CCN(C(=O)OC(C(F)(F)F)C(F)(F)F)CC2)nn2c1ccc1cc(F)cnc12
### Response 12.5

### Prompt Another molecule: O=C(OC(CO)C(F)(F)F)N1CCC(c2nn3c(c2C2CC2)CCc2cc(F)ccc2-3)CC1 (stereo not drawn)
### Response 18.8

### Prompt Repeat for the following molecule: O=C(OC(CO)C(F)(F)F)N1CCC(c2nn3c(c2C(F)(F)F)CCc2cc(F)ccc2-3)CC1 (stereo not drawn)
### Response 89.8
